Origin of the recorded values: patent US10894043B2

test: in vivo; settings: Brown Norway, rat, iv, 0.05 mg/kg, Half-life in choroid and sclera
recorded-endpoint: half-life (min)

- structure-notation: "COc1cc2ncnc(Nc3cccc(Cl)c3)c2cc1OC"
  reported-measurement: 2570

---

Assay: in vivo
Settings: Brown Norway, rat, iv, 0.2 mg/kg, Half-life in choroid and sclera
Method: This intravenous dosing solution is administered to a Brown Norway rat. After a given interval from the administration, for example, 24, 72 and 168 hours after the administration, blood is collected. Then, the rat is euthanized while the eyeballs are excised. […] The drug concentration in this assay sample can be measured using a liquid chromatograph-tandem mass spectrometer (LC/MS/MS) to measure the compound concentration in the posterior eye tissue in the case of systemic administration. […]
Listed here are molecules together with their documented half-life.

- structure-notation: "COC(=O)c1ccc2c(c1)NC(=O)/C2=C(\\Nc1ccc(N(C)C(=O)CN2CCN(C)CC2)cc1)c1ccccc1"
  half-life [h]: 194
- structure-notation: "COc1cc2ncnc(Nc3cccc(Cl)c3F)c2cc1OC(=O)N1CCN(C)C[C@H]1C"
  half-life [h]: 120
- structure-notation: "COc1cc2ncnc(Nc3ccc(F)c(Cl)c3)c2cc1NC(=O)/C=C/CN1CCCCC1"
  half-life [h]: 918
- structure-notation: "C=CC(=O)Nc1ccc2ncnc(Nc3ccc(OCc4cccc(F)c4)c(Cl)c3)c2c1"
  half-life [h]: 52.9
- structure-notation: "C#Cc1cccc(Nc2ncnc3cc4c(cc23)OCCOCCOCCO4)c1"
  half-life [h]: 64.8
- structure-notation: "CS(=O)(=O)CCNCc1ccc(-c2ccc3ncnc(Nc4ccc(OCc5cccc(F)c5)c(Cl)c4)c3c2)o1"
  half-life [h]: 246
- structure-notation: "COCCNCc1ccc(-c2cc3nccc(Oc4ccc(NC(=S)NC(=O)Cc5ccc(F)cc5)cc4F)c3s2)nc1"
  half-life [h]: 132
- structure-notation: "C=CC(=O)N1CCC(Oc2cc3c(Nc4ccc(Cl)c(Cl)c4F)ncnc3cc2OC)CC1"
  half-life [h]: 31.9
